# EXPERIMENTAL_TARGET: BCL2 D103Y (Homo sapiens, UniProt P10415, D103Y)
# ASSAY_PROCEDURE: TR-FRET competitive binding assay, BCL2 D103Y
# CONDITION_LABEL: Ki determined from IC50, read-out: TR_FRET EKI_Bcl2 D103Y
REPORTED_ENDPOINT: Ki (nM)
Answer in nM, number only, no unit symbol.

1) Cc1c(N(C(=O)c2cc(-c3cc4c(cc3C(=O)N3Cc5ccccc5C[C@H]3CN3CCCCC3)CN(C(=O)Cc3ccc(O[C@H]5CCN(CCF)C5)cc3F)CC4)n(C)c2C)c2ccc(O)cc2)cc(C#N)n1C: 0.18
2) Cc1c(N(C(=O)c2cc(-c3cc4c(cc3C(=O)N3Cc5ccccc5C[C@H]3CN(C)C(C)C)CN(C(=O)Cc3ccc(OCCN5CCOCC5)cc3F)CC4)n(C)c2C)c2ccc(O)cc2)cc(C#N)n1C: 0.17
3) Cc1c(N(C(=O)c2cc(-c3cc4c(cc3C(=O)N3Cc5ccccc5C[C@H]3CN3CCCCC3)CN(C(=O)Cc3ccc(CCN5CCC(F)(F)CC5)cc3)CC4)n(C)c2C)c2ccc(O)cc2)cc(C#N)n1C: 0.53
4) Cc1c(N(C(=O)c2cc(-c3cc4c(cc3C(=O)N3Cc5ccccc5C[C@H]3CN3CCCCC3)CN(C(=O)Cc3ccc(OCCC5COCCO5)cc3F)CC4)n(C)c2C)c2ccc(O)cc2)cc(C#N)n1C (single isomer, unassigned) [Example 174]: 0.3

Okay, now this compound:
Problem: // returns reported Ki for input Cc1c(N(C(=O)c2cc(-c3cc4c(cc3C(=O)N3Cc5ccccc5C[C@H]3C)CN(C(=O)Cc3ccc(C5CCN(CC(F)F)CC5)cc3F)CC4)n(C)c2C)c2ccc(O)cc2)cc(C#N)n1C
Solution: 0.79

---

Consider the following compounds and their measured Ki readings.
# EXPERIMENTAL_TARGET: BCL2 G101V (Homo sapiens, UniProt P10415, G101V)
# ASSAY_PROCEDURE: TR-FRET competitive binding assay, BCL2 G101V
# CONDITION_LABEL: BCL2 G101V; Ki determined from IC50; read-out: TR_FRET EKI_Bcl2 G101V
Output should be the measured figure followed by the unit it is expressed in.

Here's what some known entries look like.
1. Cc1c(N(C(=O)c2cc(-c3cc4c(cc3C(=O)N3Cc5ccccc5C[C@H]3CN3CCCC3)CN(C(=O)Cc3ccc(OCCN5CCN(CC(F)F)CC5)cc3)CC4)n(C)c2C)c2ccc(O)cc2)cc(C#N)n1C: 0.3 nM
2. Cc1c(N(C(=O)c2cc(-c3cc4c(cc3C(=O)N3Cc5ccccc5C[C@H]3CN3CCCCC3)CN(C(=O)Cc3ccc(OC(C)(C)CN5CCOCC5)cc3)CC4)n(C)c2C)c2ccc(O)cc2)cc(C#N)n1C: 2.9 nM
3. Cc1c(C(=O)N(c2ccc(O)cc2)c2cc(C#N)n(C(F)F)c2C)cc(-c2cc3c(cc2C(=O)N2Cc4ccccc4C[C@H]2CN2CCCCC2)CN(C(=O)Cc2ccc(OCCN4CCN(CCF)CC4)cc2F)CC3)n1C: 0.3 nM

Problem: // returns reported Ki for input COc1ncc(N(C(=O)c2cc(-c3cc4c(cc3C(=O)N3Cc5ccccc5C[C@H]3C)CN(C(=O)Cc3ccc(OCCN5CCOCC5)cc3F)CC4)n(C)c2C)c2ccccc2)cc1C#N
Solution: 1.2 nM

Problem: // returns reported Ki for input Cc1c(C(=O)N(c2ccccc2)c2cnn(CCN(C)C)c2)cc(-c2cc3c(cc2C(=O)N2Cc4ccccc4C[C@H]2C)CN(C(=O)Cc2ccc(OCCC4CCOCC4)cc2)CC3)n1C
Solution: 1.4 nM

Problem: // returns reported Ki for input Cc1c(N(C(=O)c2cc(-c3cc4c(cc3C(=O)N3Cc5ccccc5C[C@H]3CN3CCCCC3)CN(C(=O)Cc3ccc(OCCN5C[C@@H](C)O[C@@H](C)C5)cc3)CC4)n(C)c2C)c2ccc(O)cc2)cc(C#N)n1C
Solution: 0.4 nM

Problem: // returns reported Ki for input Cc1c(N(C(=O)c2cc(-c3cc4c(cc3C(=O)N3Cc5ccccc5C[C@H]3CN3CC[C@@H](F)C3)CN(C(=O)Cc3ccc(OCCN5CCOCC5)cc3F)CC4)n(C)c2C)c2ccc(O)cc2)cc(C#N)n1C
Solution: 0.3 nM

Problem: // returns reported Ki for input Cc1c(N(C(=O)c2cc(-c3cc4c(cc3C(=O)N3Cc5ccccc5C[C@H]3C)CN(C(=O)Cc3cc(F)c(OCCN5CCOCC5)cc3F)CC4)n(C)c2C)c2ccc(O)cc2)cc(C#N)n1C
Solution: 2 nM

Problem: // returns reported Ki for input Cc1c(N(C(=O)c2cc(-c3cc4c(cc3C(=O)N3Cc5ccccc5C[C@H]3CN3CCCCC3)CN(C(=O)Cc3ccc(OCCN(C)C5CC5)cc3F)CC4)n(C)c2C)c2ccc(O)cc2)cc(C#N)n1C
Solution: 0.6 nM

---

# EXPERIMENTAL_TARGET: BCLXL WT (Homo sapiens (Human), UniProt Q07817)
# Sequence (Q07817 other isoform, or with tags, fused parts or gaps): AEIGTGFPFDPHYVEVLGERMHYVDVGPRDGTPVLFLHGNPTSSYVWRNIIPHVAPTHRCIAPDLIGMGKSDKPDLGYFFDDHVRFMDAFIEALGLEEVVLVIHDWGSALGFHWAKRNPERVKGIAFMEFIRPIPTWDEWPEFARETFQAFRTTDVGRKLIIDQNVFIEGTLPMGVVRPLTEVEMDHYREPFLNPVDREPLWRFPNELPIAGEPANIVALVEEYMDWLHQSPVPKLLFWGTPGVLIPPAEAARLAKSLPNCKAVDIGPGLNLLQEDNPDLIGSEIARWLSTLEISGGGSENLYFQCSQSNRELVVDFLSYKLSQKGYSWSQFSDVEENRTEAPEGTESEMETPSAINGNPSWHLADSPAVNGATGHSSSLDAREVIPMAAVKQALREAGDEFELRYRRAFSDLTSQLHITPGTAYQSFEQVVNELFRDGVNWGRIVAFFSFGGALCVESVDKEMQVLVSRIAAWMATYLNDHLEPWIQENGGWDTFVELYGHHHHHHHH
# ASSAY_PROCEDURE: TR-FRET competitive binding assay, BCLXL WT
# CONDITION_LABEL: ratio Ki BCLxL / Ki BCL2 WT
Label yes (1) when TR_FRET EKI BCLxL/WT selectivty ratio is strictly below 60; at or above that, label no (0).

1) COCCn1cc(N(C(=O)c2cc(-c3cc4c(cc3C(=O)N3Cc5ccccc5C[C@H]3C)CN(C(=O)Cc3ccc(OCCN5CCOCC5)cc3)CC4)n(C)c2C)c2ccc(O)cc2)cn1: no (0)
2) Cc1c(N(C(=O)c2cc(-c3cc4c(cc3C(=O)N3Cc5ccccc5C[C@H]3CN(C(C)C)C(C)C)CN(C(=O)Cc3ccc(OCCN5CCOCC5)cc3F)CC4)n(C)c2C)c2ccc(O)cc2)cc(C#N)n1C: yes (1)
3) COC[C@@H]1Cc2ccccc2CN1C(=O)c1cc2c(cc1-c1cc(C(=O)N(c3ccccc3)c3cnn(C(F)F)c3)c(C)n1C)CCN(C(=O)Cc1ccc(OCCN3CCOCC3)cc1)C2: no (0)

Kindly consider the entry below.
Problem: Is the reported TR_FRET EKI BCLxL/WT selectivty ratio for Cc1c(N(C(=O)c2cc(-c3cc4c(cc3C(=O)N3Cc5ccccc5C[C@H]3CN3CCCCC3)CN(C(=O)Cc3ccc(OCCC5CCOCC5)cc3F)CC4)n(C)c2C)c2ccc(O)cc2)cc(C#N)n1C strictly below 60?
Solution: yes (1)

---

# Tested on: BCL2 G101V
# ASSAY_PROCEDURE: TR-FRET competitive binding assay, BCL2 G101V
# Design: species or system human
# CONDITION_LABEL: ratio Ki BCL2 G101V / Ki BCL2 WT
Consider the following compounds and their measured TR_FRET EKI G101V/WT selectivty ratio readings.
Lab note: record just the number, no unit beside it.

Here's what some known entries look like.
1. Cc1c(N(C(=O)c2cc(-c3cc4c(cc3C(=O)N3Cc5ccccc5C[C@H]3CN3CCC(C)(C)C3)CN(C(=O)Cc3ccc(OCCN5CCOCC5)cc3F)CC4)n(C)c2C)c2ccc(O)cc2)cc(C#N)n1C [Example 146]: 7.2
2. Cc1c(N(C(=O)c2cc(-c3cc4c(cc3C(=O)N3Cc5ccccc5C[C@H]3CN3CCCCC3)CN(C(=O)Cc3ccc(OCCN5CCOCC5)cc3Cl)CC4)n(C)c2C)c2ccc(O)cc2)cc(C#N)n1C [Example 161]: 7.0

Problem: Lab request: please report TR_FRET EKI G101V/WT selectivty ratio under test system BCL2 G101V for Cc1c(N(C(=O)c2cc(-c3cc4c(cc3C(=O)N3Cc5ccccc5C[C@H]3CN3CCCCC3)CN(C(=O)Cc3ccc(OCCN5CCO[C@@H](C)C5)cc3)CC4)n(C)c2C)c2ccc(O)cc2)cc(C#N)n1C [Example 150]
Solution: 6.2

---

# EXPERIMENTAL_TARGET: BCL2 D111A (Homo sapiens, UniProt P10415, D111A)
# ASSAY_PROCEDURE: TR-FRET competitive binding assay, BCL2 D111A
# CONDITION_LABEL: Ki determined from IC50, read-out: TR_FRET EKI_Bcl2 D111A
Label fulfilled when Ki is strictly below 0.1 nM; at or above that, label not fulfilled.

The examples below pair each entry with its known result.
1. Cc1c(N(C(=O)c2cc(-c3cc4c(cc3C(=O)N3Cc5ccccc5C[C@H]3C)CN(C(=O)Cc3ccc(OCCN5CCOCC5)cc3)CC4)n(C)c2C)c2ccccc2)cc(C#N)n1C [Example 65]: not fulfilled
2. Cc1c(N(C(=O)c2cc(-c3cc4c(cc3C(=O)N3Cc5ccccc5C[C@H]3CN3CCC[C@H](C)C3)CN(C(=O)Cc3ccc(OCCN5CCOCC5)cc3F)CC4)n(C)c2C)c2ccc(O)cc2)cc(C#N)n1C [Example 107]: not fulfilled
3. Cc1c(N(C(=O)c2cc(-c3cc4c(cc3C(=O)N3Cc5ccccc5C[C@H]3C)CN(C(=O)Cc3ccc(OCCN5CCC(O)CC5)cc3)CC4)n(C)c2C)c2ccc(O)cc2)cc(C#N)n1C [Example 30]: not fulfilled

Kindly consider the entry below.
Problem: Is the reported Ki for Cc1c(N(C(=O)c2cc(-c3cc4c(cc3C(=O)N3Cc5ccccc5C[C@H]3CCN3CCCCC3)CN(C(=O)Cc3ccc(OCCN5CCOCC5)cc3F)CC4)n(C)c2C)c2ccc(O)cc2)cc(C#N)n1C [Example 74] strictly below 0.1 nM?
Solution: fulfilled
